assay_text: Fraction unbound in Hartley guinea pig brain homogenates at 1 uM after 6 hrs by equilibrium dialysis method
conditions_used: brain homogenate
Rule: fraction unbound at 6 h, 1 µM below 0.01 gives 1. Equal to or above 0.01 gives -1.

Is the reported fraction unbound at 6 h, 1 µM for O=C1CCc2ccc(OCCCCN3CCN(c4cccc(Cl)c4Cl)CC3)cc2N1 strictly below 0.01? 1

I'd appreciate it if you could check whether O=C(O[C@H]1CN2CCC1CC2)N1CCc2ccccc2[C@@H]1c1ccccc1 has fraction unbound at 6 h, 1 µM smaller than 0.01. -1

A record lists CCN(C)C(=O)Oc1cccc([C@H](C)N(C)C)c1 . Is its fraction unbound at 6 h, 1 µM below 0.01? -1

Does this compound meet the criterion fraction unbound at 6 h, 1 µM < 0.01? CN1Cc2c(N)cccc2C(c2ccccc2)C1 (stereo not drawn) -1

Below 0.01 on fraction unbound at 6 h, 1 µM? Entry CO[C@H]1/C=C/O[C@@]2(C)Oc3c(C)c(O)c4c(O)c(c(/C=N/N5CCN(C)CC5)c(O)c4c3C2=O)NC(=O)/C(C)=C\C=C\[C@H](C)[C@H](O)[C@@H](C)[C@@H](O)[C@@H](C)[C@H](OC(C)=O)[C@@H]1C -1

Please indicate whether the reported fraction unbound at 6 h, 1 µM of COCCOC(=O)C1=C(C)NC(C)=C(C(=O)OC(C)C)C1c1cccc([N+](=O)[O-])c1 (stereo not drawn) is strictly below 0.01. 1

State whether 0.01 exceeds fraction unbound at 6 h, 1 µM recorded for Cc1nc2n(c(=O)c1CCN1CCC(c3noc4cc(F)ccc34)CC1)CCCC2O (stereo not drawn) . -1

Below 0.01 on fraction unbound at 6 h, 1 µM? Entry NC1CCN(c2c(F)cc3c(=O)c(C(=O)O)cn(C4CC4)c3c2Cl)C1 (stereo not drawn) -1

State whether 0.01 exceeds fraction unbound at 6 h, 1 µM recorded for COC(=O)C1=C(C)NC(C)=C(C(=O)OCCN(C)Cc2ccccc2)C1c1cccc([N+](=O)[O-])c1 (stereo not drawn) . 1

Answer whether the compound CC(CC(c1ccccc1)c1ccccc1)NC(C)(C)C (stereo not drawn) has fraction unbound at 6 h, 1 µM strictly less than 0.01 -1

Lab note: confirm whether the reported fraction unbound at 6 h, 1 µM for this compound is below 0.01, equality not counting. compound: CCCc1nc2c(C)cc(-c3nc4ccccc4n3C)cc2n1Cc1ccc(-c2ccccc2C(=O)O)cc1 1

Is 0.01 strictly greater than the compound's reported fraction unbound at 6 h, 1 µM? compound: NC(=O)N1c2ccccc2C=Cc2ccccc21 [CARBAMAZEPINE] -1

Does this compound meet the criterion fraction unbound at 6 h, 1 µM < 0.01? Fc1ccc([C@@H]2CCNC[C@H]2COc2ccc3c(c2)OCO3)cc1 1
